Taken from ChEMBL document CHEMBL1121958.

assay: Partition coefficient (logP); format: physicochemical; conditions: octanol/water
Measurement Kind: logP

{"Compound": "COCC1CC=C(/C=N/O)CC1 (configuration not stated)", "Measurement Kind": "logP", "Result Number": 1.1}
{"Compound": "COCC(C)(O)C1CC=C(/C=N/O)CC1 (configuration not stated)", "Measurement Kind": "logP", "Result Number": -0.1}
{"Compound": "O/N=C/C1=CC2C=CC1CC2 (configuration not stated)", "Measurement Kind": "logP", "Result Number": 1.9}
{"Compound": "O/N=C/C1=CCOCC1", "Measurement Kind": "logP", "Result Number": -0.72}
{"Compound": "CC1=CC=C(/C=N/O)CC1", "Measurement Kind": "logP", "Result Number": 0.78}
{"Compound": "COCC(C)(OC)C1CC=C(/C=N/O)CC1 (configuration not stated)", "Measurement Kind": "logP", "Result Number": 0.72}
{"Compound": "CC(O)(CO)C1CC=C(/C=N/O)CC1 (configuration not stated)", "Measurement Kind": "logP", "Result Number": -0.92}
{"Compound": "COCC1=CCC(/C=N/O)=CC1", "Measurement Kind": "logP", "Result Number": 0.8}
{"Compound": "O/N=C/C1=CCSCC1", "Measurement Kind": "logP", "Result Number": 0.34}
{"Compound": "C=C(C)C1CC=C(/C=N/O)CC1 (configuration not stated)", "Measurement Kind": "logP", "Result Number": 2.58}
{"Compound": "O/N=C/C1=CCCCC1", "Measurement Kind": "logP", "Result Number": 1.48}
{"Compound": "COC(C)(CO)C1CC=C(/C=N/O)CC1 (configuration not stated)", "Measurement Kind": "logP", "Result Number": -0.1}
{"Compound": "COC(C)C1CCC=C(/C=N/O)C1 (configuration not stated)", "Measurement Kind": "logP", "Result Number": 1.4}
{"Compound": "COCC1CCC=C(/C=N/O)C1 (configuration not stated)", "Measurement Kind": "logP", "Result Number": 0.8}
{"Compound": "O/N=C/C1=CCCOC1", "Measurement Kind": "logP", "Result Number": -0.72}
{"Compound": "C=CC1CC=C(/C=N/O)CC1 (configuration not stated)", "Measurement Kind": "logP", "Result Number": 2.28}
{"Compound": "COC(C)C1=CC=C(/C=N/O)CC1 (configuration not stated)", "Measurement Kind": "logP", "Result Number": 1.1}
{"Compound": "COC(C)C1CC=C(/C=N/O)CC1 (configuration not stated)", "Measurement Kind": "logP", "Result Number": 1.4}
{"Compound": "COC(C)C1=CCC(/C=N/O)=CC1 (configuration not stated)", "Measurement Kind": "logP", "Result Number": 1.1}
{"Compound": "C/C=C(C)/C=N/O", "Measurement Kind": "logP", "Result Number": 0.87}
{"Compound": "COC(C)C1=CCC=C(/C=N/O)C1 (configuration not stated)", "Measurement Kind": "logP", "Result Number": 1.1}
{"Compound": "O/N=C/C1=CC=CCC1", "Measurement Kind": "logP", "Result Number": 1.48}
